I'd appreciate it if you could supply CC50 values for the items below.
# test-name: cytotoxicity (cell morphology MCC, cell growth CC50), Table 3
# condition-summary: read-out: Cytotoxicity CC50; cell growth

compound=O=c1[nH]c(=O)n([C@H]2C[C@H](O)[C@]3(CO)C[C@H]23)cc1I reported_measurement="> 200 µM"

As a next step, examine the compound that follows.
INPUT: What does the data say about its CC50? Entry: O=c1[nH]c(=O)n([C@H]2C[C@H](O)[C@@H](CO)O2)cc1/C=C/Br [BVDU, reference compound]
OUTPUT: > 400 µM
